B1: Gamma-crystallin S, residues 96 to 176; numbered along this chain, P22914 (parent)
chain: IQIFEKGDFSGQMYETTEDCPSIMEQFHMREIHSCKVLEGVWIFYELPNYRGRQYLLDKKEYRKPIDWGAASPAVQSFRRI

# Variants of: B1
# Procedure text: abundance fitness (aPCA) (normalised: wild type 0, dead -1); higher = more abundant; growth selection in yeast, the domain comes from the species named
# Measurement parameters: Homo sapiens
Readout: abundance fitness

1. A71R: 0.007
2. Y62C: -0.162
3. Q26I: -0.065
4. S10K: 0.006
5. S34M: -0.779
6. C35N: -0.529
7. L47M: 0.07
8. I3C: -0.029
9. G69L: 0.022
10. Y45R: -0.841
11. R51V: -0.026
12. Q26S: -0.035
13. K60A: -0.001
14. N49W: 0.004
15. M13E: 0.028
16. E31H: 0.069
17. C20T: -0.086
18. C20G: -0.352
19. S77T: -0.714
20. E61V: 0.084
21. G11Q: -0.003
22. G69K: -0.127
23. L56E: 0.115
24. R51Y: -0.166
25. S22V: 0.017
26. I43N: 0.007
27. M29A: 0.048
28. P48K: 0.006
29. L56F: 0.04
30. W42V: -0.042
31. R30L: -0.031
32. H28A: 0.045
33. S22Y: 0.142
34. Q12C: -0.093
35. Q54P: -0.168
36. P21L: -0.002
37. I32E: -0.348
38. C35Y: -0.217
39. C35G: 0.048
40. Y62A: -0.099
41. E15Y: 0.115
42. G40N: -0.14
43. N49K: -0.04
